System: Escherichia coli TOP10;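 further: peptides expressed intracellularly from a pBAD plasmid library in pooled LB shake-flask culture, induced with 0.3% L-arabinose, DNA abundance read by NGS, three biological replicates, DESeq2 with apeglm shrinkage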
ASSAY NOTES: shrunken log2 fold change of peptide-encoding DNA abundance (4.5 h post-induction vs induction); higher = less antimicrobial activity (less host growth inhibition)
RUN PARAMETERS: time post-induction: 4.5 h; library: site-saturation at positions 5, 18, 19, 20
Classification scheme (shrunken log2 fold change): label 0 = under -0.03, label 1 = from -0.03 up to 0.06, label 2 = 0.06 and over

query_sequence=RRIRMRPPRLPRPRPRPEAHPRP cat="label 2"

Incoming: Determine which band this sequence sits in: RRIRTRPPRLPRPRPRPFDYPRP
Outgoing: label 1

Incoming: Determine which band this sequence sits in: RRIRTRPPRLPRPRPRPNVNPRP
Outgoing: label 2

Incoming: Determine which band this sequence sits in: RRIRERPPRLPRPRPRPIDVPRP
Outgoing: label 1

// provenance: the supplement of paper PMC9112550
